Biological target: Human Spindlin1 50-262 (human, UniProt Q9Y657 50-262)
Assay: ITC
VALUE_KIND: Kd (µM)

BINDER	VALUE_KIND	OBS_VALUE
LPKRSRPRG [DOCpep1, SPIN•DOC 187-195 peptide]	Kd	78

a. VRKKRGRPMTKN (peptide, UniProt Q9BUA3 228-239, looked up) [DOCpep2, SPIN•DOC 228-239 peptide]
b. SPIN•DOC 184-240, the whole K/R-rich region (domain or fragment) NPSLPKRSRPRGLRPLELPAVPATEPGNKKPRGQRWKEPPGEEPVRKKRGRPMTKNL
Looking only at measured Kd, which entry is lower, a or b ? The response must carry the label of the picked entry.
b
(b: 7.6 µM, a: 31 µM)
